# system: BRD4 (BD1+BD2) bromodomain protein (Homo sapiens, UniProt O60885)
# Construct: BRD4 (BD1+BD2) bromodomain protein
# assay: TR-FRET BRD4 activity assay (Cayman kit)
# particulars: room temperature 2 hours
parameter_measured: IC50 (nM)

molecule	unit_annotation	numeric_value
Cc1nnn(C)c1-c1cnc2c3c4ccn(C)c4ccc3n([C@H](c3ccccc3)C3CCOCC3)c2c1 [Compound 9]	nM	3.5
[2H]C([2H])([2H])c1nnn(C)c1-c1cnc2c3c4cn[nH]c4ccc3n([C@H](c3ccccc3)C3CCOCC3)c2c1 [Compound 14]	nM	1
Cc1nnn(C)c1-c1cnc2c3c4cccnc4ccc3n([C@H](c3ccccc3)C3CCOCC3)c2c1 [Compound 12]	nM	3.2

* * *

# system: BRD4 (BD1+BD2) bromodomain protein (Homo sapiens)
# Construct: BRD4 (BD1+BD2) bromodomain protein
# assay: TR-FRET BRD4 activity assay (Cayman kit)
# particulars: room temperature 2 hours
pIC50: −log10 of the molar value.
parameter_measured: pIC50

structure_as_smiles	system	parameter_measured	numeric_value
Cc1nnn(C)c1-c1cnc2c3c4cnn(C)c4ccc3n([C@H](c3ccccc3)C3CCOCC3)c2c1	BRD4 (BD1+BD2) bromodomain protein (Homo sapiens)	pIC50	9.00
[2H]C([2H])([2H])c1nnn(C)c1-c1cnc2c3c4cnn(C)c4ccc3n([C@H](c3ccccc3)C3CCOCC3)c2c1	BRD4 (BD1+BD2) bromodomain protein (Homo sapiens)	pIC50	9.00
Cc1nnn(C)c1-c1cnc2c3cc4c(cc3n([C@H](c3ccccc3)C3CCOCC3)c2c1)C(=O)N(C)C4	BRD4 (BD1+BD2) bromodomain protein (Homo sapiens)	pIC50	8.44
Cc1nnn(C)c1-c1cnc2c3c4cc[nH]c4ccc3n([C@H](c3ccccc3)C3CCOCC3)c2c1	BRD4 (BD1+BD2) bromodomain protein (Homo sapiens)	pIC50	8.82
Cc1nnn(C)c1-c1cnc2c3cc4c(cnn4C)cc3n([C@H](c3ccccc3)C3CCOCC3)c2c1	BRD4 (BD1+BD2) bromodomain protein (Homo sapiens)	pIC50	8.34
Cc1nnn(C)c1-c1cnc2c3cc4cnn(C)c4cc3n([C@H](c3ccccc3)C3CCOCC3)c2c1	BRD4 (BD1+BD2) bromodomain protein (Homo sapiens)	pIC50	8.42
Cc1nnn(C)c1-c1cnc2c3c4cn[nH]c4ccc3n([C@H](c3ccccc3)C3CCOCC3)c2c1	BRD4 (BD1+BD2) bromodomain protein (Homo sapiens)	pIC50	9.00

* * *

As shown below, each of these compounds has a reported IC50 value.
# System: H211 cell line
# assay: Cell activity detection, Alamar-Blue, H211
# Format: cell-based
# particulars: Homo sapiens, NCI-H211, 72 h incubation
parameter_measured: IC50

compound	result
Cc1nnn(C)c1-c1cnc2c3c4cccnc4ccc3n([C@H](c3ccccc3)C3CCOCC3)c2c1 [Compound 12]	12 nM
Cc1nnn(C)c1-c1cnc2c3cc4c(cc3n([C@H](c3ccccc3)C3CCOCC3)c2c1)CN(C)C4=O [Compound 2]	8.5 nM
Cc1nnn(C)c1-c1cnc2c3cc4c(cnn4C)cc3n([C@H](c3ccccc3)C3CCOCC3)c2c1 [Compound 4]	11.2 nM
